# Test Description: Kinetic solubility in aqueous media (nephelometry)
# Format: physicochemical
# Measurement Setup: aqueous buffer, kinetic from dmso stock; phosphate citrate buffer pH 7.4, dilution of 5 mM DMSO stock, turbidity by nephelometer; read-out: Solubility C.2. score
Listing of recorded solubility by entry.
Readout Type: solubility

[[record]]
structure = "O=C(NO)c1cnc(N2CCN(c3c(NCc4cccc(C(F)(F)F)c4)c(=O)c3=O)CC2)nc1"
reported_value = "> 454 µM"

[[record]]
structure = "O=C(NO)c1cnc(N2CCN(c3c(NCc4ccco4)c(=O)c3=O)CC2)nc1"
reported_value = "> 454 µM"


* * *

# Tested System: histone deacetylase (HeLa nuclear extracts)
# Test Description: In vitro assay for inhibition of histone deacetylase (HDAC Fluorescent Activity Assay, Fluor de Lys)
# Assay type: biochemical
# Parameters: key: pIC50 = negative log of IC50
# Measurement Setup: HeLa nuclear extracts 60 μg/ml, 75 μM Fluor de Lys substrate, pH 7.4, 30 min
Readout Type: Enzymatic activity pIC50 C.1.

[[record]]
compound = "CCN(CC)CCCNc1c(N2CCN(c3ncc(C(=O)NO)cn3)CC2)c(=O)c1=O"
tested_system = "histone deacetylase (HeLa nuclear extracts)"
readout_type = "Enzymatic activity pIC50 C.1."
reported_value = 7.2

[[record]]
compound = "O=C(NO)c1cnc(N2CCN(c3c(NCCCN4CCCC4=O)c(=O)c3=O)CC2)nc1"
tested_system = "histone deacetylase (HeLa nuclear extracts)"
readout_type = "Enzymatic activity pIC50 C.1."
reported_value = 6.8

[[record]]
compound = "COc1cc(CNc2c(N3CCN(c4ncc(C(=O)NO)cn4)CC3)c(=O)c2=O)cc(OC)c1OC"
tested_system = "histone deacetylase (HeLa nuclear extracts)"
readout_type = "Enzymatic activity pIC50 C.1."
reported_value = 7.4

[[record]]
compound = "O=C(NO)c1cnc(N2CCN(c3c(NCC4CCN(Cc5ccccc5)C4)c(=O)c3=O)CC2)nc1 (stereo not shown)"
tested_system = "histone deacetylase (HeLa nuclear extracts)"
readout_type = "Enzymatic activity pIC50 C.1."
reported_value = 6.9

[[record]]
compound = "O=C(NO)c1cnc(N2CCN(c3c(NCC4(c5ccc(Cl)cc5)CC4)c(=O)c3=O)CC2)nc1"
tested_system = "histone deacetylase (HeLa nuclear extracts)"
readout_type = "Enzymatic activity pIC50 C.1."
reported_value = 7.2

[[record]]
compound = "O=C(NO)c1cnc(N2CCN(c3c(NCCc4ccccc4)c(=O)c3=O)CC2)nc1"
tested_system = "histone deacetylase (HeLa nuclear extracts)"
readout_type = "Enzymatic activity pIC50 C.1."
reported_value = 7.1

[[record]]
compound = "O=C(NO)c1cnc(N2CCN(c3c(NCCNc4ccccc4)c(=O)c3=O)CC2)nc1"
tested_system = "histone deacetylase (HeLa nuclear extracts)"
readout_type = "Enzymatic activity pIC50 C.1."
reported_value = 6.9

[[record]]
compound = "O=C(NO)c1cnc(N2CCN(c3c(NCCOc4ccccc4)c(=O)c3=O)CC2)nc1"
tested_system = "histone deacetylase (HeLa nuclear extracts)"
readout_type = "Enzymatic activity pIC50 C.1."
reported_value = 7.3

[[record]]
compound = "O=C(NO)c1cnc(N2CCN(c3c(NC4CCCc5ccccc54)c(=O)c3=O)CC2)nc1 (stereo not shown)"
tested_system = "histone deacetylase (HeLa nuclear extracts)"
readout_type = "Enzymatic activity pIC50 C.1."
reported_value = 7.2

[[record]]
compound = "O=C(NO)c1cnc(N2CCN(c3c(Nc4cccc(-c5ccccc5)c4)c(=O)c3=O)CC2)nc1"
tested_system = "histone deacetylase (HeLa nuclear extracts)"
readout_type = "Enzymatic activity pIC50 C.1."
reported_value = 7.7

[[record]]
compound = "O=C(NO)c1cnc(N2CCN(c3c(NCc4cccc(C(F)(F)F)c4)c(=O)c3=O)CC2)nc1"
tested_system = "histone deacetylase (HeLa nuclear extracts)"
readout_type = "Enzymatic activity pIC50 C.1."
reported_value = 7.2

[[record]]
compound = "CCCCCNc1c(N2CCN(c3ncc(C(=O)NO)cn3)CC2)c(=O)c1=O"
tested_system = "histone deacetylase (HeLa nuclear extracts)"
readout_type = "Enzymatic activity pIC50 C.1."
reported_value = 7.6

[[record]]
compound = "O=C(NO)c1cnc(N2CCN(c3c(NCc4ccco4)c(=O)c3=O)CC2)nc1"
tested_system = "histone deacetylase (HeLa nuclear extracts)"
readout_type = "Enzymatic activity pIC50 C.1."
reported_value = 7.2

[[record]]
compound = "O=C(NO)c1cnc(N2CCN(c3c(NCc4cccnc4)c(=O)c3=O)CC2)nc1"
tested_system = "histone deacetylase (HeLa nuclear extracts)"
readout_type = "Enzymatic activity pIC50 C.1."
reported_value = 7.0

[[record]]
compound = "O=C(NO)c1cnc(N2CCN(c3c(NCCOc4cccc(Cl)c4)c(=O)c3=O)CC2)nc1"
tested_system = "histone deacetylase (HeLa nuclear extracts)"
readout_type = "Enzymatic activity pIC50 C.1."
reported_value = 7.4

[[record]]
compound = "O=C(NO)c1cnc(N2CCN(c3c(NCCc4ccccn4)c(=O)c3=O)CC2)nc1"
tested_system = "histone deacetylase (HeLa nuclear extracts)"
readout_type = "Enzymatic activity pIC50 C.1."
reported_value = 7.0

